Exercise: for every item that follows, state its recorded inhibition.
# TARGET OR SYSTEM: Human immunodeficiency virus type 1 protease (Human immunodeficiency virus 1) (UniProt Q72874)
# METHOD DESCRIPTION: Percent inhibition of human immunodeficiency virus type I (HIV-1) protease was determined at 50 uM concentration
Starred links: 1 amine or outer side, 2 acyl side, 3 side chain; linkers in the order of their positions; H or OH if unused. Non-standard residues stand in square brackets, D forms with d. Residues, ends and D or L forms follow the SMILES beside them. X1 = O=C(C(O)[C@H](Cc1ccccc1)N[*:1])[*:2]; X2 = CC(C)C[C@H](N[*:1])C(O)C(=O)[*:2]; Thz(5,5-Me2) = CC1(C)SCN[C@@H]1C(=O)O
Give bare numbers, in %.

Some solved cases for reference:
# MOLECULE, UNIT OF MEASUREMENT, inhibition
data = [
    ("CSCC[C@H](NC(=O)[C@@H](NC(=O)[C@H]1N(C(=O)C(O)[C@H](Cc2ccccc2)NC(=O)[C@@H](NC(=O)[C@H](CCC(N)=O)NC(=O)[C@@H]2CCCN2)C(C)C)CSC1(C)C)C(C)C)C(=O)N[C@@H](Cc1c[nH]cn1)C(=O)O (stereo not given in full) (H-PQV[X1][Thz(5,5-Me2)]VMH-OH)", "%", 58),
    ("Cc1ccccc1CNC(=O)C1N(C(=O)C(O)C(Cc2ccccc2)NC(=O)COc2c(C)cccc2C)CSC1(C)C (stereo not given)", "%", 98),
    ("CC(C)c1nc(CN(C)C(=O)N[C@H](C(=O)N[C@@H](Cc2ccccc2)C[C@H](O)[C@H](Cc2ccccc2)NC(=O)OCc2cncs2)C(C)C)cs1", "%", 100),
    ("Cc1ccccc1CNC(=O)C1N(C(=O)C(O)C(Cc2ccccc2)NC(=O)c2cccc(O)c2C)CSC1(C)C (stereo not given)", "%", 96),
    ("CSCC[C@H](NC(=O)[C@@H](NC(=O)[C@H]1N(C(=O)C(O)[C@H](CC(C)C)NC(=O)[C@@H](NC(=O)[C@H](CCC(N)=O)NC(=O)[C@@H]2CCCN2)C(C)C)CSC1(C)C)C(C)C)C(=O)N[C@@H](Cc1c[nH]cn1)C(=O)O (stereo not given in full) (H-PQV[X2][Thz(5,5-Me2)]VMH-OH)", "%", 37),
]

Provide reported inhibition for each item, in the same order as listed.
1. CC(C)CC(=O)N[C@H](C(=O)N[C@H](C(=O)N[C@@H](CC(C)C)[C@@H](O)CC(=O)N[C@@H](C)C(=O)N[C@@H](CC(C)C)[C@@H](O)CC(=O)O)C(C)C)C(C)C
2. Cc1c(O)cccc1C(=O)NC(Cc1ccccc1)C(O)C(=O)N1CSC(C)(C)C1C(=O)NC(C)(C)C (stereo not given)
3. CSCC[C@H](NC(=O)[C@@H](NC(=O)[C@@H]1CCCN1C(=O)C(O)[C@H](CC(C)C)NC(=O)[C@@H](NC(=O)[C@H](CCC(N)=O)NC(=O)[C@@H]1CCCN1)C(C)C)C(C)C)C(=O)N[C@@H](Cc1c[nH]cn1)C(=O)O (stereo not given in full) (H-PQV[X2]PVMH-OH)
4. CSCC[C@H](NC(=O)[C@@H](NC(=O)[C@@H]1CCCN1C(=O)C(O)[C@H](Cc1ccccc1)NC(=O)[C@@H](NC(=O)[C@H](CCC(N)=O)NC(=O)[C@@H]1CCCN1)C(C)C)C(C)C)C(=O)N[C@@H](Cc1c[nH]cn1)C(=O)O (stereo not given in full) (H-PQV[X1]PVMH-OH)
5. Cc1cccc(C)c1OCC(=O)NC(Cc1ccccc1)C(O)C(=O)N1CSC(C)(C)C1C(=O)NC(C)(C)C (stereo not given)

Response given:
1: 23; 2: 88; 3: 3; 4: 6; 5: 96

Origin of the recorded values: ChEMBL document CHEMBL1137065
